Recorded refractive index, one value per entry.
- experimentalDetails: refractive index (Na D-line) (dimensionless)
- measurementSetup: 298.15 K; 101.33 kPa; Liquid; Standard Abbe refractometry
Kindly provide the number alone.

CCCCCCCCCCCCO [dodecan-1-ol]; 1.4407
CCCCCCCCCCCC [dodecane]; 1.4195
CCCCCCCCCCC [undecane]; 1.415

Ask: Entry CCCCCCCCN(CCCCCCCC)CCCCCCCC [trioctylamine] : reported refractive index = ?
Reply: 1.4476

* * *

- measurementSetup: 298.15 K; 101.33 kPa; Liquid; Vibrating tube method
readoutName: mass density (kg/m3)
Give the number; kg/m3 is assumed, so skip it.

CCCCCCCCCCCCO; 830.37
CCCCCCCCCCCC; 745.52
CCCCCCCCN(CCCCCCCC)CCCCCCCC; 807.9

Now take the following molecule into account.
Ask: Entry CCCCCCCCCCC : reported mass density = ?
Reply: 736.73
